assay: in vivo; design: species or system BALB/c nu/nu female mice; settings: female, BALB/c nu/nu, mouse, iv, 40 pmol, total radioactivity, Tumor-to-pancreas ratio
recorded.endpoint: tissue to tissue ratio at 24 h

- CCNC(=O)[C@H](CC(C)C)NC(=O)[C@H](Cc1c[nH]cn1)NC(=O)CN(C)C(=O)[C@@H](NC(=O)[C@H](C)NC(=O)[C@H](Cc1c[nH]c2ccccc12)NC(=O)[C@H](CCC(N)=O)NC(=O)[C@@H](Cc1ccccc1)NC(=O)COCC(=O)Nc1ccc(CNC(=O)CCC(C(=O)O)N2CCN(CC(=O)O)CCN(CC(=O)O)CCN(CC(=O)O)CC2)cc1)C(C)C (stereo partly shown) [[^111In]In-AU-SAR-M1, metal not drawn]: 57

====

assay: in vivo; set-up: species or system BALB/c nu/nu female mice; conditions: female, BALB/c nu/nu, mouse, iv, 40 pmol, total radioactivity, Pancreas uptake
Measured tissue uptake at 4 h accompanies every entry in the list below.
recorded.endpoint: tissue uptake at 4 h (%ID/g)

• CCNC(=O)[C@H](CC(C)C)NC(=O)[C@H](Cc1c[nH]cn1)NC(=O)CN(C)C(=O)[C@@H](NC(=O)[C@H](C)NC(=O)[C@H](Cc1c[nH]c2ccccc12)NC(=O)[C@H](CCC(N)=O)NC(=O)[C@@H](Cc1ccccc1)NC(=O)COCC(=O)Nc1ccc(CNC(=O)[C@@H](CCCNC(=N)N)NC(=O)CCC(C(=O)O)N2CCN(CC(=O)O)CCN(CC(=O)O)CCN(CC(=O)O)CC2)cc1)C(C)C (stereo partly drawn) [[^111In]In-AU-SAR-M3, [^111In]In-[DOTAGA-DArg]AU-SAR-M1, metal not drawn] = 0.5
• CCNC(=O)[C@H](CC(C)C)NC(=O)[C@H](Cc1c[nH]cn1)NC(=O)CN(C)C(=O)[C@@H](NC(=O)[C@H](C)NC(=O)[C@H](Cc1c[nH]c2ccccc12)NC(=O)[C@H](CCC(N)=O)NC(=O)[C@@H](Cc1ccccc1)NC(=O)COCC(=O)Nc1ccc(CNC(=O)[C@H](CCCNC(=N)N)NC(=O)CCC(C(=O)O)N2CCN(CC(=O)O)CCN(CC(=O)O)CCN(CC(=O)O)CC2)cc1)C(C)C (stereo partly drawn) [[^111In]In-AU-SAR-M2, [^111In]In-[DOTAGA-Arg]AU-SAR-M1, metal not drawn] = 9
• CCNC(=O)[C@H](CC(C)C)NC(=O)[C@H](Cc1c[nH]cn1)NC(=O)CN(C)C(=O)[C@@H](NC(=O)[C@H](C)NC(=O)[C@H](Cc1c[nH]c2ccccc12)NC(=O)[C@H](CCC(N)=O)NC(=O)[C@@H](Cc1ccccc1)NC(=O)COCC(=O)Nc1ccc(CNC(=O)CCC(C(=O)O)N2CCN(CC(=O)O)CCN(CC(=O)O)CCN(CC(=O)O)CC2)cc1)C(C)C (stereo partly drawn) [[^111In]In-AU-SAR-M1, metal not drawn] = 2

====

experiment: in vivo; design: species or system BALB/c nu/nu female mice; settings: female, BALB/c nu/nu, mouse, iv, 40 pmol, total radioactivity, Tumor-to-spleen ratio
Measured tissue to tissue ratio at 4 h accompanies every entry in the list below.
recorded.endpoint: tissue to tissue ratio at 4 h

- CCNC(=O)[C@H](CC(C)C)NC(=O)[C@H](Cc1c[nH]cn1)NC(=O)CN(C)C(=O)[C@@H](NC(=O)[C@H](C)NC(=O)[C@H](Cc1c[nH]c2ccccc12)NC(=O)[C@H](CCC(N)=O)NC(=O)[C@@H](Cc1ccccc1)NC(=O)COCC(=O)Nc1ccc(CNC(=O)[C@H](CCCNC(=N)N)NC(=O)CCC(C(=O)O)N2CCN(CC(=O)O)CCN(CC(=O)O)CCN(CC(=O)O)CC2)cc1)C(C)C (stereo partly drawn) [[^111In]In-AU-SAR-M2, [^111In]In-[DOTAGA-Arg]AU-SAR-M1, metal not drawn]: 46
- CCNC(=O)[C@H](CC(C)C)NC(=O)[C@H](Cc1c[nH]cn1)NC(=O)CN(C)C(=O)[C@@H](NC(=O)[C@H](C)NC(=O)[C@H](Cc1c[nH]c2ccccc12)NC(=O)[C@H](CCC(N)=O)NC(=O)[C@@H](Cc1ccccc1)NC(=O)COCC(=O)Nc1ccc(CNC(=O)[C@@H](CCCNC(=N)N)NC(=O)CCC(C(=O)O)N2CCN(CC(=O)O)CCN(CC(=O)O)CCN(CC(=O)O)CC2)cc1)C(C)C (stereo partly drawn) [[^111In]In-AU-SAR-M3, [^111In]In-[DOTAGA-DArg]AU-SAR-M1, metal not drawn]: 39
- CCNC(=O)[C@H](CC(C)C)NC(=O)[C@H](Cc1c[nH]cn1)NC(=O)CN(C)C(=O)[C@@H](NC(=O)[C@H](C)NC(=O)[C@H](Cc1c[nH]c2ccccc12)NC(=O)[C@H](CCC(N)=O)NC(=O)[C@@H](Cc1ccccc1)NC(=O)COCC(=O)Nc1ccc(CNC(=O)CCC(C(=O)O)N2CCN(CC(=O)O)CCN(CC(=O)O)CCN(CC(=O)O)CC2)cc1)C(C)C (stereo partly drawn) [[^111In]In-AU-SAR-M1, metal not drawn]: 61

The values you see were collected from paper PMC10873254.
